biological target: CatSper (Homo sapiens, UniProt Q7RTX7+Q86XQ3+Q8NEC5+Q96P56); construct: Motile spermatozoa were selected by a ‘swim-up’ procedure; endogenous in cells; host or cells: motile human spermatozoa (swim-up) from healthy donors; assay: Steroid-induced increase in [Ca2+]i in human sperm (Fluo-4 HTS assay, screen 1 activators); assay type: cell-based; conditions: read-out: Max amplitude (%) (± SD)
Emax strictly under 80% means yes (1); at 80% or over means no (0).

A selection of reference data follows.
C[C@]12CC[C@H]3[C@@H](CC[C@H]4C[C@H](O)CC[C@@H]43)[C@@H]1CCC2=O [S85]; no (0)
CC12CCC(O)CC1CCC1C2CCC2(C)C1CCC2(C)O (stereo not drawn) [S64]; yes (1)
CC(=O)C1CCC2C3CC[C@H]4CC(=O)CC[C@]4(C)C3CC[C@]12C (stereo partly drawn) [S46]; no (0)
C[C@]12CCC(=O)C(O)=C1CC[C@@H]1[C@@H]2CC[C@]2(C)C(=O)CC[C@@H]12 [formestane]; yes (1)

Note: attention shifts to another entry.
Query string: Just wondering, is Emax of C[C@]12CC[C@H]3C(=CCc4cc(O)ccc43)[C@@H]1CCC2=O [equilin] below 80%?
Result string: yes (1)

###

target: CatSper (Homo sapiens, UniProt Q7RTX7+Q86XQ3+Q8NEC5+Q96P56); construct: Motile spermatozoa were selected by a ‘swim-up’ procedure; endogenous in cells; host or cells: motile human spermatozoa (swim-up) from healthy donors; test: Steroid-induced increase in [Ca2+]i in human sperm (Fluo-4 HTS assay, screen 1 activators); type: cell-based; conditions: pooled from 3 independent experiments; read-out: Mean EC50 µM (±SD)
Endpoint label: EC50 (µM)
Use µM as the unit, but write only the number.

Query string: Item: C[C@]12CCC(=O)C=C1C=C[C@@H]1[C@@H]2CC[C@@]2(C)[C@H]1CC[C@@]2(O)CCC(=O)[O-].[K+] [canrenoic acid potassium salt] Test system: CatSper (Homo sapiens, UniProt Q7RTX7+Q86XQ3+Q8NEC5+Q96P56) Read-out: EC50 Value: ?
Result string: 23.4

###

molecular target: CatSper (Homo sapiens, UniProt Q7RTX7+Q86XQ3+Q8NEC5+Q96P56); construct: Motile spermatozoa were selected by a ‘swim-up’ procedure; endogenous in cells; host or cells: motile human spermatozoa (swim-up) from healthy donors; assay: Steroid-induced increase in [Ca2+]i in human sperm (Fluo-4 HTS assay, screen 1 activators); format: cell-based; conditions: pooled from 3 independent experiments; read-out: Mean EC50 µM (±SD)
Endpoint label: EC50

C#C[C@]1(OC(C)=O)CC[C@H]2[C@@H]3CCC4=C[C@@H](OC(C)=O)CC[C@@H]4[C@H]3CC[C@@]21C [ethynodiol diacetate]; 17.7 µM
C#C[C@]1(O)CC[C@H]2[C@@H]3CCC4=CC(=O)CC[C@@H]4[C@H]3CC[C@@]21C; 6.05 µM
CC(=O)[C@@]1(O)CC[C@H]2[C@@H]3C[C@H](C)C4=CC(=O)C=C[C@]4(C)[C@@]3(F)[C@@H](O)C[C@@]21C; 0.702 µM
CC#C[C@]1(O)CC[C@H]2[C@@H]3CCC4=CC(=O)CCC4=C3[C@@H](c3ccc(N(C)C)cc3)C[C@@]21C; 13.5 µM
CC(=O)[C@H]1CC[C@H]2[C@@H]3CCC4=CC(=O)CC[C@]4(C)[C@H]3CC[C@]12C; 0.002 µM

Turning now to a further record.
Query string: Consider the compound CC(=O)[C@H]1CC[C@H]2[C@@H]3C[C@H](C)C4=CC(=O)CC[C@]4(C)[C@H]3[C@@H](O)C[C@]12C and give its measured EC50.
Result string: 0.23 µM
